# target.or.test.system: UniProt Q13822
Kindly supply the reported pIC50 values for the records listed here.
Answers are plain numbers, as −log10 of the molar value.

Examples with their reported pIC50 follow.
# compound, assay.result
measured = [
    ("COc1cccc(-c2cc(Cl)c(C)cc2OCc2n[nH]c(=O)n2C)c1F [Example B90]", 8.15),
    ("Cc1cc(OCc2n[nH]c(=O)n2C)c(-c2cnc[nH]2)cc1Cl [Example B28]", 5.23),
]

Would you mind giving pIC50 for every compound in the list below?
1. Cc1cc(OCc2n[nH]c(=O)n2C)c(-c2ccccc2S(C)(=O)=O)cc1Cl [Example B7]
2. Cn1c(COc2cc(Cl)c(C#N)cc2-c2ccccc2)n[nH]c1=O [Example B31]
3. CC(C)c1cc(C#N)ccc1OCc1n[nH]c(=O)n1C [Example A11]
4. Cc1cc(OCc2n[nH]c(=O)n2C)c(-c2cccc(C(=O)Nc3ccccc3)c2)cc1Cl [Example B13]
5. Cc1cc(OCc2n[nH]c3nc(N(C)CC(O)CO)ncc23)c(C(C)(C)C)cc1Cl (stereo not drawn) [Example D27]

Reply:
1. 5.38
2. 7.37
3. 7.82
4. 8.22
5. 8.10

Provide pIC50 values for the following items, in order.
1. Cc1cc(OCc2n[nH]c(=O)n2C)c(-c2cccc(C(=O)NCCO)c2)cc1Cl [Example B36]
2. Cc1cc(OCc2n[nH]c3nc(OCCO)ncc23)c(C(C)(C)C)cc1Cl [Example D31]

Reply:
1: 7.09; 2: 8.15

====

# target.or.test.system: human ATX (Homo sapiens (Human), UniProt Q13822)
Label key: Met means IC50 under 20 nM; Not met means IC50 of 20 nM or more.

# molecule, group
measured = [
    ("Cc1cc(OCc2n[nH]c(=O)n2C)c(-c2cc(C(=O)N3CCCC3)ccc2F)cc1Cl", "Met"),
    ("COc1ncccc1-c1cc(Cl)c(C)cc1OCc1n[nH]c2ncccc12", "Not met"),
    ("Cc1noc(-c2ccc(OCc3n[nH]c(=O)n3C)c(C(C)(C)C)c2)n1", "Not met"),
    ("COc1ccc(C(F)(F)F)cc1-c1cc(Cl)c(C)cc1OCc1n[nH]c(=O)n1C", "Not met"),
]

Turning to the following compound.
Ask: Answer whether the compound `Cn1cncc1-c1ccc(OCc2n[nH]c(=O)n2C)c(C(C)(C)C)c1` has IC50 strictly less than 20 nM
Reply: Not met

====

The listing below reports IC50 for molecules tested on human ATX (Homo sapiens (Human)).
Give bare numbers, in µM.

Look over these answered cases.
# molecule, assay.result
data = [
    ("Cc1nnc(-c2cccc(-c3cc(C#N)c(Cl)cc3OCc3n[nH]c(=O)n3C)c2)o1 [Example B37]", 0.079),
    ("N#Cc1cc(-c2cc(OC(F)(F)F)ccc2F)c(OCc2n[nH]c3ncccc23)cc1Cl [Example D55]", 0.003),
    ("N#Cc1cc(-c2cc(OC3CC3)ccc2F)c(OCc2n[nH]c3cnccc23)cc1Cl [Example D51]", 0.069),
]

Provide reported IC50 for each item, in the same order as listed.
1. Cc1cc(OCc2n[nH]c3nc(F)ccc23)c(C(C)(C)C)cc1Cl [Example D6]
2. Cc1cc(OCc2ccc(=O)[nH]n2)c(C2CCC2)cc1Cl [Example C5]
3. COC(=O)CCNC(=O)c1cccc(-c2cc(Cl)c(C)cc2OCc2n[nH]c(=O)n2C)c1 [Example B44]
4. Cc1cc(OCc2n[nH]c3cccnc23)c(-c2cccc(C(=O)N(C)C)c2)cc1Cl [Example D24]
5. Cc1cc(OCc2n[nH]c(=O)n2C)c(-c2cc(CN3CCCC3=O)ccc2F)cc1Cl [Example B81]

Reply:
[0.019, 0.001, 0.013, 0.099, 0.003]

Report IC50 for every entry below.
1. Cc1cc(OCc2n[nH]c3ncccc23)c(C(C)(C)C)cc1Cl [Example D3]
2. Cc1cc(OCc2n[nH]c(=O)n2C)c(-c2cc(C(=O)N(C)CCO)ccc2F)cc1Cl [Example B64]
3. Cc1cc(OCc2n[nH]c(=O)n2C)c(-c2ccccc2)cc1Cl [Example B1]
4. Cc1cc(C(C)(C)C)c(OCc2n[nH]c3ncccc23)cc1C#N [Example D48]
5. Cc1cc(OCc2n[nH]c3ccccc23)c(C(C)C)cc1Cl [Example D2]

Reply:
1: 0.004; 2: 0.021; 3: 0.003; 4: 0.032; 5: 0.014

Kindly give each listed record's IC50.
1. CC(C)c1cc(Cl)ccc1OCc1n[nH]c(=O)n1C [Example A29]
2. CC(C)(C)c1cc(Cl)c(F)cc1OCc1n[nH]c2nc(F)ccc12 [Example D12]
3. Cn1ccnc1-c1ccc(OCc2n[nH]c(=O)n2C)c(C(C)(C)C)c1 [Example A6]
4. Cc1cc(OCc2ccc(=O)[nH]n2)c(C2CC2)cc1Cl [Example C2]
5. Cc1cc(OCc2n[nH]c(=O)n2C)c(-c2cccc(C(=O)N(C)CCO)c2)cc1Cl [Example B45]

Reply:
1. 0.05
2. 0.001
3. 0.523
4. 0.022
5. 0.029

Hey, quick one: what's IC50 for each of these?
1. Cc1cc(OCc2n[nH]c3ncccc23)c(-c2cccc(C(=O)NCCO)c2)cc1Cl [Example D19]
2. Cc1cc(OCc2ccc(=O)[nH]n2)c(C(C)(C)C)cc1Cl [Example C8]
3. Cc1cc(C(C)C)c(OCc2ccc(=O)[nH]n2)cc1Cl [Example C4]
4. Cn1c(COc2ccc(-c3ncc[nH]3)cc2C(C)(C)C)n[nH]c1=O [Example A32]
5. Cc1cc(OCc2ccc(=O)[nH]n2)c(C2CCOCC2)cc1Cl [Example C7]
6. Cc1cc(OCc2ccc(=O)[nH]n2)c(C(C)(C)C#N)cc1Cl [Example C9]
7. Cn1c(COc2cc(Cl)c(C#N)cc2-c2ccc(F)cc2)n[nH]c1=O [Example B32]
8. Cc1cc(OCc2n[nH]c3ncccc23)c(-c2cccc(C(=O)N3CCOCC3)c2)cc1Cl [Example D17]

Reply:
0.035
0.005
0.003
3.77
0.022
0.046
0.031
0.002

// each listed molecule needs a value for IC50
1. Cc1cc(OCc2n[nH]c(=O)n2C)c(-c2cccc(C(=O)N3CCCCC3)c2)cc1Cl [Example B8]
2. CC(C)(C)c1cc(S(C)(=O)=O)ccc1OCc1n[nH]c2ccccc12 [Example D1]
3. Cc1cc(OCc2n[nH]c(=O)n2C)c(-c2cnccn2)cc1Cl [Example B22]
4. CC(C)(C)c1cc(Cl)c(C#N)cc1OCc1n[nH]c2ncccc12 [Example D52]
5. CN(CCO)c1ccc2c(COc3cc(F)c(Cl)cc3C(C)(C)C)n[nH]c2n1 [Example D14]

Reply:
0.01
245
0.227
0.002
0.013

Batch of 4 molecules: report IC50 for each.
1. Cc1cc(OCc2n[nH]c(=O)n2C)c(-c2cc(CNC(=O)C3CC3)ccc2F)cc1Cl [Example B79]
2. Cc1nc(-c2cccc(-c3cc(C#N)c(Cl)cc3OCc3n[nH]c(=O)n3C)c2)no1 [Example B35]
3. Cc1cc(OCc2n[nH]c(=O)n2C)c(-c2cccc(C(=O)NCC(=O)O)c2)cc1Cl [Example B48]
4. Cn1c(COc2cc(Cl)c(C#N)cc2-c2cccc(F)c2F)n[nH]c1=O [Example B91]

Reply:
1: 0.01; 2: 0.081; 3: 0.192; 4: 0.004

====

human ATX (Homo sapiens (Human), UniProt Q13822) data, read-out IC50
Answers are plain numbers, in nM.

# molecule, assay.result
records = [
    ("Cn1c(COc2cc(C(N)=O)ccc2C(C)(C)C)n[nH]c1=O", 958),
    ("COCC(=O)NCc1ccc(F)c(-c2cc(Cl)c(C)cc2OCc2n[nH]c(=O)n2C)c1", 8),
    ("Cc1cc(OCc2n[nH]c(=O)n2C)c(-c2cc(C(=O)N(C)C3CCCC3)ccc2F)cc1Cl", 7),
]

Go through the list and state IC50 for each entry.
1. CC(C)c1cc2c(cc1OCc1n[nH]c(=O)n1C)C(C)(C)CC2
2. Cc1cc(OCc2n[nH]c(=O)n2C)c(C2CCC2)cc1Cl
3. Cc1cc(OCc2n[nH]c(=O)n2C)c(-c2ccno2)cc1Cl

Reply:
[25, 19, 20]

State recorded IC50 for all listed molecules.
1. Cc1cc(OCc2n[nH]c3nc(OCC(O)CO)ncc23)c(C(C)(C)C)cc1C#N (stereo not drawn)
2. Cc1nc2cc(OCc3n[nH]c(=O)n3C)c(C3CC3)cc2s1

Reply:
1: 6; 2: 9
